- Procedure summary: Confirmation and Secondary Assay for Modulators of Hemoglobin Beta Chain Splicing at IVS2 654 locus (AID 910);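 note: HeLa cells stably carrying EGFP split by mutant beta-globin IVS2-654 intron; per-well total GFP intensity by laser scanning cytometry after 2-day treatment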
- Run conditions: HeLa EGFP-654 splicing reporter, GFP fluorescence, 48 h; series mostly up to 46.1 µM
Activity calls are given as the source filed them. Calls come from the whole dose curve; as a rule, active = well fitted activation curve with a large enough effect; inconclusive = small, poorly fitted or top-dose-only effect; inactive = flat fitted curve, though single readings scatter. Bridge positions count the residues as written; N and C are the ends. Square brackets hold non-standard residues; d marks the D form. Peptide text beside a SMILES is read from it. * marks the point of attachment. Octanoyl(6-Me) = CCC(C)CCCCC(=O)*; Dab = NCC[CH](N)C(=O)O
Outcomes: label 1 = active, label 0 = inactive

[[record]]
compound = "COc1cc(/C=C/C(=O)N2CCC=CC2=O)cc(OC)c1OC"
category = "label 0"

[[record]]
compound = "S=C1NC=NC2N=CNC12 (stereo not drawn)"
category = "label 1"

[[record]]
compound = "O=C1CC(c2ccccc2)Oc2ccccc21 (stereo not drawn)"
category = "label 0"

[[record]]
compound = "C/C=C\\c1ccc(OC)cc1"
category = "label 0"

[[record]]
compound = "CC1(C)C(OC(=O)CCC(=O)O)CC[C@]2(C)C1CC[C@@]1(C)C2C(=O)C=C2[C@@H]3C[C@@](C)(C(=O)O)CC[C@]3(C)CCC21C (stereo partly drawn)"
category = "label 0"

[[record]]
compound = "O=c1c(O)c(-c2ccccc2)oc2ccc3occc3c12"
category = "label 0"

[[record]]
compound = "COc1cc(C)c2c(=O)cc(-c3ccccc3)oc2c1"
category = "label 0"

[[record]]
compound = "CCC(C)CCCCC(=O)NC(CCN)C(=O)NC(C(=O)NC(CCN)C(=O)NC1CCNC(=O)C(C(C)O)NC(=O)C(CCN)NC(=O)C(CCN)NC(=O)C(CC(C)C)NC(=O)C(Cc2ccccc2)NC(=O)C(CCN)NC1=O)C(C)O (stereo not drawn) ({Octanoyl(6-Me)}-[Dab]T[Dab][Dab][Dab]FL[Dab][Dab]T; lactam 4-C; configuration not given here)"
category = "label 0"


###

- Test system: P93_24
- Procedure summary: qHTS profiling for inhibitors of Plasmodium falciparum proliferation (AID 504749); note: nearly all actives have a fitted effect of over 60% in size
- Run conditions: P. falciparum in erythrocytes, SYBR Green DNA, 72 h; series mostly up to 28.7 µM
- Procedure: NIH National Institute of Allergy and Infectious Diseases [NIAID] NIH Chemical Genomics Center [NCGC] […] Because mature erythrocytes lack DNA, only Plasmodium-derived DNA is detected. NCGC Assay Protocol Summary: The SYBR Green viability assay was adapted from a method described previously (Plouffe et al., 2008). […] The following morning, fluorescence intensity at 485(14) nm excitation and 535(25) nm emission wavelengths was measured on an EnVision (Perkin Elmer) plate reader. […]
Records with an inconclusive call do not appear. Activity calls are given as the source filed them. Calls follow the shape of the dose curve; as a rule, active = well fitted inhibition curve with a large enough effect; inconclusive = small, poorly fitted or top-dose-only effect; inactive = flat fitted curve, though single readings scatter.
Outcomes: y = active, n = inactive

[[record]]
compound = "CC1CCC(C(C)C)C(OC(=O)c2ccccc2O)C1 (centres undefined)"
category = "n"

[[record]]
compound = "Cc1cc(CC(C)CC(C)(C)C)n(O)c(=O)c1 (centres undefined)"
category = "y"

[[record]]
compound = "NC1=NC(S)C2N=CN=C2N1 (centres undefined)"
category = "n"

[[record]]
compound = "CC(C)CN(C[C@@H](OP(=O)(O)O)[C@H](Cc1ccccc1)NC(=O)O[C@@H]1CCOC1)S(=O)(=O)c1ccc(N)cc1"
category = "n"

[[record]]
compound = "CN1CC[C@H](CN2c3ccccc3Sc3ccccc32)C1"
category = "y"

[[record]]
compound = "CO/N=C(/C(=O)N[C@@H]1C(=O)N2C(C(=O)O)=CCS[C@H]12)c1csc(N)n1"
category = "n"

[[record]]
compound = "C=C[C@]1(C)C[C@@H](OC(=O)CSCCN(CC)CC)[C@]2(C)C(C)CC[C@]3(CCC(=O)[C@H]32)[C@@H](C)[C@@H]1O (some centres undefined)"
category = "y"

[[record]]
compound = "CN(C)CCCCCCN(C)C"
category = "n"

[[record]]
compound = "CO[C@@H]1[C@@H](OC2OC(C)C(OC3CC(C)(O)C(OC(=O)CC(C)C)C(C)O3)C(N(C)C)C2O)[C@@H](CC=O)C[C@@H](C)C(=O)/C=C\\C2O[C@H]2C[C@@H](C)OC(=O)C[C@H]1OC(C)=O (some centres undefined)"
category = "y"


###

- Test target: Rap guanine nucleotide exchange factor 3 (Homo sapiens)
- Procedure summary: Confirmatory qHTS for antagonist of cAMP-regulated guanine nucleotide exchange factor 3 (EPAC1) (AID 1645880); note: nearly all actives have a fitted effect of over 55% in size
- Run conditions: EPAC1 Rap1B-BODIPY-GDP exchange, fluorescence
Inconclusive results are not listed. The source made the active and inactive calls. Calls follow the shape of the dose curve; as a rule, active = well fitted inhibition curve with a large enough effect; inconclusive = small, poorly fitted or top-dose-only effect; inactive = no such curve, though single readings can be large or run the other way.
Outcomes: YES for active, NO for inactive

[[record]]
molecule = "O=C(/C=C/c1ccc(O)c(O)c1)O[C@@H]1C[C@](O)(C(=O)O)C[C@@H](O)[C@H]1O"
category = "NO"

[[record]]
molecule = "CC(C)(C)OC(=O)N1CCN(C(=O)c2[nH]c(C(F)(F)F)nc2-c2ccccc2)CC1"
category = "NO"

[[record]]
molecule = "COc1cc(C(C)=O)ccc1COc1ccc(C(=O)O)cc1OC"
category = "NO"

[[record]]
molecule = "O=C(N/N=C/c1c(O)n(-c2ccccc2Cl)c(=O)c2ccccc12)C1COc2ccccc2O1 (stereo not given)"
category = "YES"

[[record]]
molecule = "COC(=O)/C(=C/Nc1ccc(O)cc1)[N+](=O)[O-]"
category = "NO"


###

- Procedure summary: Dual reporter qHTS for agonist of Pregnane X Receptor (hPXR) against the NCATS DSHEA and TCM libraries: Fluorescence readout (AID 1920058); note: 0% is about no effect
- Run conditions: PXR dual reporter cells; series mostly up to 40 µM
Active and inactive are the calls of the source. The call rests on the fitted dose curve; in most records, active means well fitted curve in the direction sought with a large enough effect; inconclusive means small, poorly fitted or top-dose-only effect, or another doubt; inactive means no such curve, though single readings can be large or run the other way.
Metric: activation

[[record]]
compound = "CC(=O)OC1CC2CCC1(C)C2(C)C (stereo not drawn)"
metric = "activation"
experimental_value = "inactive"

[[record]]
compound = "CC1=C2[C@H](/C=C(\\C)C(=O)O)CC[C@@H](C)[C@H]2CC1"
metric = "activation"
experimental_value = "inactive"

[[record]]
compound = "CC1(C)C2CCC1(C)C(O)C2 (stereo not drawn)"
metric = "activation"
experimental_value = "inactive"

[[record]]
compound = "CCCCCCCC/C=C/CCCCCCCC(=O)O"
metric = "activation"
experimental_value = "inactive"

[[record]]
compound = "Oc1cc(O)c2c(c1)O[C@@H](c1cc(O)c(O)c(O)c1)[C@H](O)C2"
metric = "activation"
experimental_value = "inactive"

[[record]]
compound = "O=C(/C=C/c1ccc(O)c(O)c1)O[C@@H]1CC(O)(C(=O)O)C[C@@H](OC(=O)/C=C/c2ccc(O)c(O)c2)C1O (stereo partly drawn)"
metric = "activation"
experimental_value = "inactive"

[[record]]
compound = "C=C1C[C@@]23CC[C@H]4[C@](C)(CCC[C@]4(C)C(=O)O[C@@H]4O[C@H](CO)[C@@H](O)[C@H](O)[C@H]4O)[C@@H]2CC[C@]1(O[C@H]1O[C@@H](CO)[C@H](O)[C@@H](O)[C@@H]1O)C3"
metric = "activation"
experimental_value = "inactive"

[[record]]
compound = "CCCCC/C=C/C/C=C/CCCCCCCC(=O)O"
metric = "activation"
experimental_value = "inactive"

[[record]]
compound = "COc1ccc(-c2coc3cc(O[C@@H]4O[C@H](CO)[C@@H](O)[C@H](O)[C@H]4O)ccc3c2=O)cc1"
metric = "activation"
experimental_value = "inactive"

[[record]]
compound = "O=c1cc(-c2ccc(O)cc2)oc2cc(O[C@@H]3O[C@H](CO)[C@@H](O)[C@H](O)[C@H]3O[C@@H]3OC[C@](O)(CO)[C@H]3O)cc(O)c12"
metric = "activation"
experimental_value = "inactive"

[[record]]
compound = "C=C1CC[C@H](O)C/C1=C\\C=C1/CCC[C@]2(C)[C@@H]([C@H](C)CC[C@H](C)C(C)C)CC[C@@H]12"
metric = "activation"
experimental_value = "inactive"

[[record]]
compound = "O=c1cc(-c2ccc(O)c(O)c2)oc2cc(O[C@@H]3O[C@@H](CO)[C@@H](O)[C@@H](O)[C@H]3O)cc(O)c12"
metric = "activation"
experimental_value = "inactive"

[[record]]
compound = "O=C(/C=C/c1ccc(O)c(O)c1)O[C@@H]1CC(C(=O)O)=C[C@@H](O)[C@H]1O"
metric = "activation"
experimental_value = "inactive"

[[record]]
compound = "CCCCCCCC/C=C/CCCCCCCCCC(=O)O"
metric = "activation"
experimental_value = "inactive"

[[record]]
compound = "CCCCCCCCCCCCCCCCCCCCCC(=O)O"
metric = "activation"
experimental_value = "inactive"

[[record]]
compound = "CC(C)=CCC[C@](C)(OC1OC(COC2OCC(O)C(O)C2O)C(O)C(O)C1O)[C@H]1CC[C@]2(C)[C@@H]1[C@H](O)C[C@@H]1[C@@]3(C)CC[C@H](OC4OC(CO)C(O)C(O)C4OC4OC(CO)C(O)C(O)C4O)C(C)(C)[C@@H]3CC[C@]12C (stereo partly drawn)"
metric = "activation"
experimental_value = "inactive"

[[record]]
compound = "CC/C=C\\C/C=C\\C/C=C\\C/C=C\\CCCCC(=O)O"
metric = "activation"
experimental_value = "-3.85% [at 5 µM] (inactive)"

[[record]]
compound = "COc1cc(-c2oc3cc(O)cc(O)c3c(=O)c2O)ccc1O"
metric = "activation"
experimental_value = "inactive"

